Biological target: SpCas9 (Streptococcus pyogenes serotype M1)
Sequence (Q99ZW2 whole entry): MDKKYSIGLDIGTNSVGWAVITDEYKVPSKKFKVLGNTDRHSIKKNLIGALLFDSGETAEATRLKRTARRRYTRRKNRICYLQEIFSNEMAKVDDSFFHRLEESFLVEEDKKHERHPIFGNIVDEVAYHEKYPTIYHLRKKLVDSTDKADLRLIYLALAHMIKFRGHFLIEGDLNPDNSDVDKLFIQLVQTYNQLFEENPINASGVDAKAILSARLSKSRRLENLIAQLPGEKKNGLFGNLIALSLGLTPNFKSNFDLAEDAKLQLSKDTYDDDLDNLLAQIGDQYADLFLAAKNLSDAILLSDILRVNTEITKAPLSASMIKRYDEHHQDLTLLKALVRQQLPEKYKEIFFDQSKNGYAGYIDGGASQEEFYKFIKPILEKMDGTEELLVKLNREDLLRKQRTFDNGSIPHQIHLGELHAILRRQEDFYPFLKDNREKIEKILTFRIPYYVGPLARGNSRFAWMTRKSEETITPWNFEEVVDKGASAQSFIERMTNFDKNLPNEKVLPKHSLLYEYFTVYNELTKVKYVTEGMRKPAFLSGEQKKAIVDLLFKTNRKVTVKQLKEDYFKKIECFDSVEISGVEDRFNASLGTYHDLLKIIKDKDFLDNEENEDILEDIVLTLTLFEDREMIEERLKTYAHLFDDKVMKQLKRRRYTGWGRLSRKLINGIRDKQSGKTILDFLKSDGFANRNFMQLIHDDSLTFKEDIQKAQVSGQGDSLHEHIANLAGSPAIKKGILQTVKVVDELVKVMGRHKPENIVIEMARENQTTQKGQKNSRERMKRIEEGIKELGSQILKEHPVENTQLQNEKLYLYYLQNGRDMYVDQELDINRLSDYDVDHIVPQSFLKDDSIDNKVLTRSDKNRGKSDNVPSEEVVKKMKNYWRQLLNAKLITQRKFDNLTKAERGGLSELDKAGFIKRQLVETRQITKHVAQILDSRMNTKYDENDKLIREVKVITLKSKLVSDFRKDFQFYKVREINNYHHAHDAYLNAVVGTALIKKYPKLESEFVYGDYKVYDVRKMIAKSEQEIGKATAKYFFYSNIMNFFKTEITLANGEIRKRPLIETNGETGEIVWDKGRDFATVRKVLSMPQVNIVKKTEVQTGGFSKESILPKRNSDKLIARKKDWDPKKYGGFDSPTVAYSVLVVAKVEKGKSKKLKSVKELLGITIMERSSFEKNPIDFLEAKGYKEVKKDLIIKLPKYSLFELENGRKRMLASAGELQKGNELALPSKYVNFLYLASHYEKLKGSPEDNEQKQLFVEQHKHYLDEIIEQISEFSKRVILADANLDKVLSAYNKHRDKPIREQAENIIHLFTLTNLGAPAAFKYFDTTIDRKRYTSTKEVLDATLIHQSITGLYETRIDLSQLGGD
Assay: Strand displacement assay (SDA) / cumulative activity assay (CAA), SpCas9 primary screen
Type: biochemical
Settings: Primary Screen (150 min); replicate 1
Exam item: assign met to entries whose Normalized Z score 1 is below 0.3 and not met to entries at or above 0.3. Note that a value of exactly 0.3 receives not met.

Solved cases (5 shown):
>>> cat("O=C(CCC(=O)c1ccc(F)cc1)OC1CCOC1=O (centres unmarked) [Compound T0512-8635]")
"met"
>>> cat("Cc1ccc(C(=O)n2ncn(C)c2=S)cc1 [Compound T0510-3476]")
"not met"
>>> cat("O=C(CSc1nccn1-c1cccc(F)c1)N1CCN(c2ccc(O)cc2)CC1 [Compound T5535170]")
"met"
>>> cat("NC(=S)c1ccccn1 [Compound T5211106]")
"met"
>>> cat("COc1ccc(-c2ccc3ncc4c(c3c2)n(-c2ccc(N3CCNCC3)c(C(F)(F)F)c2)c(=O)n4C)cn1.O=C(O)C=CC(=O)O [Compound S2749]")
"not met"

Hello, is Normalized Z score 1 of the following compound strictly smaller than 0.3? Cc1c(P(=S)(N2CCOCC2)N2CCOCC2)cc(C#N)n1C [Compound T0503-9777] met

Item COc1ccc(OC)c(CNC(=O)c2ccc(Oc3ccnc(-c4cccc(F)c4)n3)cc2)c1 [Compound L662-0973] : Normalized Z score 1 beneath 0.3, strictly? not met

* * *

Target: UniProt Q99ZW2
Assay: Strand displacement assay (SDA) / cumulative activity assay (CAA), SpCas9 primary screen
Type: biochemical
Details: Primary Screen (150 min)
Recorded measurements of avg z score primary, one per entry
Answer with a number only.

>>> test_value("O=C(CCS(=O)(=O)c1ccc(Cl)cc1)Nc1nc(-c2ccccn2)cs1")
4.44
>>> test_value("CCc1ccc(NC(=O)C(C#N)=Cc2cc(C#N)n(C)c2C)cc1")
4.90
>>> test_value("CCc1cccc(-n2nnnc2N2CCN(C(=O)Nc3ccc(C)cc3Cl)CC2)c1")
5.44

Could you now consider this next compound?
The compound identified as O=C(NC1CCCCC1)c1cccc(Oc2cc(-c3ccccc3)ncn2)c1 registered its avg z score primary at 7.77

* * *

Listing: Average Normalized Z score of selected molecules
Target: SpCas9 (Streptococcus pyogenes serotype M1)
Test: Strand displacement assay (SDA) / cumulative activity assay (CAA), SpCas9 primary screen
Type: biochemical
Settings: Primary Screen (150 min)
Experimental: Screening of inhibitors was via a high throughput pipeline, as depicted in FIG. 29. The first screening is via a strand displacement assay (SDA) for detecting nuclease activity (FIG. 27A, 28A). […] Next screened compounds are evaluated in an eGFP cell assay, and for eGFP dose. Those compounds are further narrowed via a HiBiT assay and finally evaluated in the surveyor assay. […]
Note: the reply should be a number with no unit written.

Worked examples, 5 molecules total:
>>> test_value("COc1ccc(C(=O)Oc2cc(-c3ccc(OC)c(OC)c3)cc(=O)c3c(C)oc(C)c23)cc1")
0.20
>>> test_value("O=C(CCS(=O)(=O)c1ccc(Cl)cc1)Nc1nc(-c2ccccn2)cs1")
0.05
>>> test_value("Cc1ccccc1C(=O)Nc1nc2ccc(S(N)(=O)=O)cc2s1")
0.04
>>> test_value("CCc1cccc(-n2nnnc2N2CCN(C(=O)Nc3ccc(C)cc3Cl)CC2)c1")
0.19
>>> test_value("CCn1c(=O)c(C(=O)Nc2nccc(C)n2)c(O)c2ccccc21")
0.21

Sample CNS(=O)(=O)c1ccc2nc(NC(=O)c3ccc(N4C(=O)CCC4=O)cc3)sc2c1 ; Average Normalized Z score observed: 0.06

Memo: Cc1ccc(C(C)NC(=O)c2cccc(Oc3cc(-c4ccccc4)ncn3)c2)cc1 (centres unmarked) , reported Average Normalized Z score: 0.28

The molecule O=C(CCS(=O)(=O)c1ccc(Cl)cc1)Nc1nc(-c2ccncc2)cs1 showed Average Normalized Z score equal to 0.04

* * *

Molecular target: SaCas9 (Staphylococcus aureus, UniProt J7RUA5)
Sequence (J7RUA5 whole entry): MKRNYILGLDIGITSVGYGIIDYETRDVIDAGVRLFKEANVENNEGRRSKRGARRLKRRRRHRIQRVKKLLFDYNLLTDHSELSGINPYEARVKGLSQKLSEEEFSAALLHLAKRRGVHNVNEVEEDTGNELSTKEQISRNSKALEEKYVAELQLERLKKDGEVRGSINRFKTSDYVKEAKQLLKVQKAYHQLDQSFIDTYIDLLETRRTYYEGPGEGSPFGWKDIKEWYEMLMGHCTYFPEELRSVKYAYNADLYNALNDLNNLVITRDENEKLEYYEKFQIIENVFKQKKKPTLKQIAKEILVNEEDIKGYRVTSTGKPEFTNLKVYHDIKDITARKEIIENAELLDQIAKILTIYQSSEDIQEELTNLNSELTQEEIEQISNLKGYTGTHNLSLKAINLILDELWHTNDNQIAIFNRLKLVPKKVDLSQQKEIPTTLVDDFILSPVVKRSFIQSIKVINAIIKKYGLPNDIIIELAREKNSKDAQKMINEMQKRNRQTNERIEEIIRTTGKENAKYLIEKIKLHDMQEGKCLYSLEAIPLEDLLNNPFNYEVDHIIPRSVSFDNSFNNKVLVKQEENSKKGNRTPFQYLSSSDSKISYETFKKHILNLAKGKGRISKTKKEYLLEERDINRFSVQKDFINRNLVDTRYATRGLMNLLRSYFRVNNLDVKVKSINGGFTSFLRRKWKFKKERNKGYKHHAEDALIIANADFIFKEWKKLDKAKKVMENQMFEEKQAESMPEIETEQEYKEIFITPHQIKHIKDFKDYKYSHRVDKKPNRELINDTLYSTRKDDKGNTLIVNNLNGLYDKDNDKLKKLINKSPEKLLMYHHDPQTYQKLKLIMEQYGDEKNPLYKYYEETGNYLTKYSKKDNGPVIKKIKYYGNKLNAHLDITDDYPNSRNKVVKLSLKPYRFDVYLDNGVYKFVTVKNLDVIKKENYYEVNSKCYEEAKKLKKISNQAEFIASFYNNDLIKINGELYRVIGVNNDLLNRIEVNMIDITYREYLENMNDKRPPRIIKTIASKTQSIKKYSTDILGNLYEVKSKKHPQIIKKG
Experiment: Strand displacement assay, SaCas9 primary screen
Format: biochemical
Details: SaCas9 primary screen, Auto Zscore, replicate 2
Description: An overview of the screening for SaCas9 inhibitors is depicted in FIG. 14. A total of 43,168 Compounds were screened from the ICCB Libraries. […] A hit is determined from the Zscore, with 3-5σ being a weak hit, >5σ being a strong hit. […] Generalization of CAA to other Cas nucleases. […] Given the similarities between SaCas9 and SpCas9 modes of DNA-substrate binding and protein folding,^26, 27 Applicants hypothesized that SaCas9-induced strand displacement could be similarly measured. […]
The label Yes is reserved for Auto Zscore Rep 2 strictly under -0.09; No covers values equal to or above it.

>>> cat("CCN(Cc1ccccc1)c1ncc(NS(=O)(=O)CC)cc1C(=O)O")
"No"
>>> cat("CCN(Cc1ccccc1)c1ncc(NS(=O)(=O)c2ccccc2)cc1C(=O)O")
"No"
>>> cat("CCN(CC)c1ncc(NS(=O)(=O)c2cc(C)c(C)cc2C)cc1C(=O)O")
"Yes"
>>> cat("Cc1nnc(NC(=O)CSc2ccc3nnc(-c4ccc(F)cc4)n3n2)s1")
"Yes"
>>> cat("CCSc1nc2c(c(=O)[nH]1)C(c1ccc(O)c(O)c1)CC(=O)N2 (stereo not drawn)")
"No"
>>> cat("Cc1cccc(Nc2nc(C(N)=O)c(NC(=O)c3ccc(F)cc3)s2)c1C")
"No"

Does this compound meet the criterion Auto Zscore Rep 2 < -0.09? CCN(Cc1ccccc1)c1ncc(NS(=O)(=O)c2c(C)cc(C)cc2C)cc1C(=O)O Yes

Does CN(C)c1ncc(NS(=O)(=O)c2cc(F)ccc2F)cc1C(=O)O have Auto Zscore Rep 2 strictly under -0.09? No

Given the entry Cc1cc(-c2nn3c(C(C)C)nnc3s2)no1 , would its reported Auto Zscore Rep 2 be below -0.09? Yes

Please indicate whether the reported Auto Zscore Rep 2 of CN(C)S(=O)(=O)Nc1ccc(N2CCC(C(N)=O)(N3CCCCC3)CC2)c(C(=O)O)c1 is strictly below -0.09. Yes

Quick check: does O=C(CSc1nnc2ccccn12)N1CCc2ccccc2C1 have Auto Zscore Rep 2 under -0.09? No

Could you please tell me whether Auto Zscore Rep 2 recorded for CN(C)S(=O)(=O)Nc1ccc(N2CCN(CC(=O)N3CCCC3)CC2)c(C(=O)O)c1 is less than -0.09? Yes

* * *

Target: SpCas9 (Streptococcus pyogenes serotype M1)
Experiment: Strand displacement assay (SDA) / cumulative activity assay (CAA), SpCas9 primary screen
Assay type: biochemical
Conditions: Primary Screen (150 min)
measure-name: avg z score primary
I only need the number, thanks.

Solved entries:
>>> test_value("COc1ccc(OC)c(CNC(=O)c2ccc(Oc3ccnc(-c4cccc(F)c4)n3)cc2)c1")
5.63
>>> test_value("O=C(O)c1cccc(NCC2SC(=S)NC2=O)c1 (centres unmarked)")
4.79
>>> test_value("CCOC(=O)C1=C(C)NN=C(Nc2cccc(C)c2C)S1")
4.54
>>> test_value("O=C(CCS(=O)(=O)c1ccccc1)Nc1nc(-c2ccncc2)cs1")
5.95
>>> test_value("COc1ccc(-c2cc(N3CCN(C(=O)c4ccc(C(C)(C)C)cc4)CC3)ncn2)cc1")
20.61
>>> test_value("Cc1ccccc1C(=O)Nc1nc2ccc(S(N)(=O)=O)cc2s1")
3.81
>>> test_value("COc1ccc(C(=O)Oc2cc(-c3ccc(OC)c(OC)c3)cc(=O)c3c(C)oc(C)c23)cc1")
3.32
>>> test_value("COc1ccc(-n2c(N(C(C)=O)C(C)=O)c(C#N)c3nc4ccccc4nc32)cc1")
14.21

Reported avg z score primary for O=C1NC(=S)C(=C2CCCC2)S1 was 22.96

Consider CC(C)CNC(=O)c1ccc(Oc2ccnc(-c3ccc(F)cc3)n2)cc1 . Its measured avg z score primary is 7.15

Lookup result for CCOC(=O)C1CCCN(Cn2nnn(-c3ccc(OC)cc3)c2=S)C1 (centres unmarked) ; measured avg z score primary: 3.45

Lab book: avg z score primary of O=C(N/N=C/c1ccc(O)c(O)c1O)c1cccc(S(=O)(=O)Nc2ccccc2Cl)c1 noted as 4.48

Documented avg z score primary of N=C1N=CC(=NNc2cc(C(=O)O)ccc2Cl)S1 : 4.20

According to the records, this molecule Cc1[nH]nc2ccc(-c3cncc(OCC(N)Cc4ccccc4)c3)cc12 (centres unmarked) displays avg z score primary of 3.67

# avg z score primary (molecule: O=C(CSc1nccn1-c1cccc(F)c1)N1CCN(c2ccc(O)cc2)CC1 ) is 4.37

* * *

The reader will find reported Normalized eGFP Disruption Rep 1 values listed item by item below.
Target: UniProt:J7RUA5
Experiment: eGFP secondary assay, SaCas9
Assay type: cell-based
Details: replicate 1, % eGFP disruption
Give only the figure.

// solved cases for Normalized eGFP Disruption Rep 1 follow
>>> test_value("Cc1cccc(NC(=O)c2cc3c(=O)n4ccccc4nc3s2)c1 [C243-0026]")
69.530
>>> test_value("CNC(=O)c1sc(=S)n2c1[nH]c(=O)c1cc(Br)ccc12 [F083-0285]")
69.292
>>> test_value("Cc1ccc(C)c(Nc2nc(C(N)=O)c(NC(=O)c3ccc(C)nc3Cl)s2)c1 [D686-0195]")
70.121
>>> test_value("COc1ccc(N2C(=O)c3cc4ccccc4n3CC2(C)C(=O)NC2CCCCC2)c(OC)c1 (centres unmarked) [E234-0018]")
61.394

Measured Normalized eGFP Disruption Rep 1, CCCN(CCC)C(=O)C1CCCN(c2ccc(-c3ccccc3)nn2)C1 (centres unmarked) [F305-0061] : 60.527
